biological target: Serine/threonine-protein kinase 3 (Homo sapiens)
Sequence (Q13188 whole entry): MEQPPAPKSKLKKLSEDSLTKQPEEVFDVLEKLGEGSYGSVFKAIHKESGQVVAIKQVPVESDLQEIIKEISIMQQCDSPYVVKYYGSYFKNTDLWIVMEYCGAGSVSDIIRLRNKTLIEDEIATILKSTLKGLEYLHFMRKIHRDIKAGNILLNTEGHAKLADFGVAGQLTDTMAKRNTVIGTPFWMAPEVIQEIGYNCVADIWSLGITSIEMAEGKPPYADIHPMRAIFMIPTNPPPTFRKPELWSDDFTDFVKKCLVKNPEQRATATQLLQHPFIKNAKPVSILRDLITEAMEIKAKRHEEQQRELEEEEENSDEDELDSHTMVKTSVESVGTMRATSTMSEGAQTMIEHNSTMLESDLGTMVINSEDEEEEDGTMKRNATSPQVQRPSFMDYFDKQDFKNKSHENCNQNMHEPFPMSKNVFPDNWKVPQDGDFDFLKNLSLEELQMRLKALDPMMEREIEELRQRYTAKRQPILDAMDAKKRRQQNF
readoutLabel: IC50 (nM)
Response body: numeric value in nM, unit text excluded.

Asked: Using the record for CN1C(=O)c2sccc2N(C)c2nc(Nc3ccc(S(N)(=O)=O)cc3)ncc21 , report its IC50.
Given back: 38.8

---

experiment: Apparent volume of distribution in male Sprague-Dawley rat at 5 mg/kg, iv measured for 24 hrs by LC-MS/MS analysis; format: ADME, organism-based; settings: in vivo, read-out: Vz
readoutLabel: Vd (L/kg)
Response body: numeric value in L/kg, unit text excluded.

Asked: Using the record for CN1C(=O)c2sccc2N(C)c2nc(Nc3ccc(S(N)(=O)=O)cc3)ncc21 , report its Vd.
Given back: 7.1

---

Target: Serine/threonine-protein kinase TAO2 (Homo sapiens)
Sequence (Q9UL54 whole entry): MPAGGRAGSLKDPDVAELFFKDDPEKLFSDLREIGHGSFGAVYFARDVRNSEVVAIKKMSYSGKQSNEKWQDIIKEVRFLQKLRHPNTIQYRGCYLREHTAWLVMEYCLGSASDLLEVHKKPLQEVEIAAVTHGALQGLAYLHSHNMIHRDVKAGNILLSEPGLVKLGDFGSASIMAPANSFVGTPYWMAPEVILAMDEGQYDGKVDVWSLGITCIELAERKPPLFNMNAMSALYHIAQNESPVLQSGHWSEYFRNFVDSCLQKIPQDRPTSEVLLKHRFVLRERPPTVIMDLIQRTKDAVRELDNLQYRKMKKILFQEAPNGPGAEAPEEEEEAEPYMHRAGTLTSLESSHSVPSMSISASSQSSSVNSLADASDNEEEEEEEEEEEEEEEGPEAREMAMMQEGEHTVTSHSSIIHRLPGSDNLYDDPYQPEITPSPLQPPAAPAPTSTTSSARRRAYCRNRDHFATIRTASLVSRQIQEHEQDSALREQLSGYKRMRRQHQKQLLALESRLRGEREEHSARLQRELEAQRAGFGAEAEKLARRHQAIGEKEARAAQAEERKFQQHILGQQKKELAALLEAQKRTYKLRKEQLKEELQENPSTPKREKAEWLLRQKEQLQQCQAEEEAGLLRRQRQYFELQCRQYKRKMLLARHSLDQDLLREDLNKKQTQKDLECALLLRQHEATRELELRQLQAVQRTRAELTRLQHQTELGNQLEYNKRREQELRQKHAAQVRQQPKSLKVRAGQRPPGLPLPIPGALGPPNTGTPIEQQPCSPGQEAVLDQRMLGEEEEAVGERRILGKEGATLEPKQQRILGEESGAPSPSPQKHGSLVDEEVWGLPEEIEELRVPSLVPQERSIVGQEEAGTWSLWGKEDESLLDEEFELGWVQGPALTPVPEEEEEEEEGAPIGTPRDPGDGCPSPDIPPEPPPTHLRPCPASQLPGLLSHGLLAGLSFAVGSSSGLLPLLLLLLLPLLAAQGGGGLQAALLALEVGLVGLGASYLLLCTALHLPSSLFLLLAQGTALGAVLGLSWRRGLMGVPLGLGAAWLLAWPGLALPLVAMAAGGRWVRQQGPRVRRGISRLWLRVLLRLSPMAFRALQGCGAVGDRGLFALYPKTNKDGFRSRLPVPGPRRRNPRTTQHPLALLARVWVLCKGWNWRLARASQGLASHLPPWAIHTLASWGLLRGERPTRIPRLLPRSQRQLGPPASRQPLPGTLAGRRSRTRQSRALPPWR
readoutLabel: pIC50
Reminder that pIC50 means the negative base-10 logarithm of the concentration expressed in mol/L.

Asked: Using the record for CN1C(=O)c2sccc2N(C)c2nc(Nc3ccc(S(N)(=O)=O)cc3)ncc21 , report its pIC50.
Given back: 6.87
